# TEST_PROTOCOL: Cmax in patient at 32.5 mg, po administered as single dose
# Type: ADME, organism-based
# Set-up: dose 32.5 mg, route oral
# TEST_PARAMETERS: human, in vivo
MEASURED_ENDPOINT: Cmax

Exercise: What measured Cmax goes with `Nc1cc(F)ccc1NC(=O)c1ccc(CNC(=O)/C=C/c2cccnc2)cc1` ?
Key: 312 nM

----------
# TEST_PROTOCOL: AUC in patient at 32.5 mg, po administered as single dose
# Assay type: ADME, organism-based
# TEST_PARAMETERS: human, in vivo
MEASURED_ENDPOINT: AUC
For clarity, give the value followed by its unit.

Exercise: What measured AUC goes with `Nc1cc(F)ccc1NC(=O)c1ccc(CNC(=O)/C=C/c2cccnc2)cc1` ?
Key: 2.24 µM·h
